Origin of the recorded values: patent US10759766B2

- Study Target: KDR (VEGFR2) (Homo sapiens (Human), UniProt P35968)
- Sequence (P35968 20-1356): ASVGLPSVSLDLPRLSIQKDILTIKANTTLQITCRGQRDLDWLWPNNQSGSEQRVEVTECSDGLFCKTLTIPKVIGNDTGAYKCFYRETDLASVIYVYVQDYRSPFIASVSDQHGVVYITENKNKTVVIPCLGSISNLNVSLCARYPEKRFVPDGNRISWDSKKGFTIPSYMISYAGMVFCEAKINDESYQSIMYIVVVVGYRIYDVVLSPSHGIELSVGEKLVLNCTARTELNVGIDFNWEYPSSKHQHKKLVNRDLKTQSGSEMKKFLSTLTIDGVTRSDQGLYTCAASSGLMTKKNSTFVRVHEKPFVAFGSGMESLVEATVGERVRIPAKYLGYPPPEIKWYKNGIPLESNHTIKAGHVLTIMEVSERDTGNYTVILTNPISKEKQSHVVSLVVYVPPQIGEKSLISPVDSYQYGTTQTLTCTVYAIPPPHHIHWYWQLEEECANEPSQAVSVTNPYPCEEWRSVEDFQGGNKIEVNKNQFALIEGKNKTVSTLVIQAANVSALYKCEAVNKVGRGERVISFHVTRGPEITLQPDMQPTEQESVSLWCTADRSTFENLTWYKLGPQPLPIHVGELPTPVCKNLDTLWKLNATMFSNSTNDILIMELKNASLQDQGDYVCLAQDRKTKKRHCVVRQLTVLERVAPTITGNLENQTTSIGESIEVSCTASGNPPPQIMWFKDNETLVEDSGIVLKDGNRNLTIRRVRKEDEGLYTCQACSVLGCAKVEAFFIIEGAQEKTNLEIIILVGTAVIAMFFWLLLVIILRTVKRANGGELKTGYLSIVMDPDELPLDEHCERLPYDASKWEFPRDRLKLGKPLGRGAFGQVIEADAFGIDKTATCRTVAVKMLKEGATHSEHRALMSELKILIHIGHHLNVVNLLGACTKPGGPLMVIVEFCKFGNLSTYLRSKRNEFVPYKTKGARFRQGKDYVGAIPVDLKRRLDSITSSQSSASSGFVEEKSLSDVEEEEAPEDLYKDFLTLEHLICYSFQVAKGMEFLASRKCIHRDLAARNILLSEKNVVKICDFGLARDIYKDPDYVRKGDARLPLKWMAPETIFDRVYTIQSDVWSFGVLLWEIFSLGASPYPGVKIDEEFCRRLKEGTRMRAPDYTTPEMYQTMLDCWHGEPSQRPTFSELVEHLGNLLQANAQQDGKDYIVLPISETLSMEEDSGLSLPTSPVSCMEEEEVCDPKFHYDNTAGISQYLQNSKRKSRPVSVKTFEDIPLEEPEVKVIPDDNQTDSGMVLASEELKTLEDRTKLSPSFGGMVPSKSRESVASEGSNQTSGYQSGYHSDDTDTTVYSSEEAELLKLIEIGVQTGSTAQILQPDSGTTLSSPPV
- Assay Procedure: Z′-LYTE kinase inhibition assay (Invitrogen), KDR
- Format: biochemical
- Test Context: 1 μM compound, Z′-LYTE method; read-out: % inhibition at 1 μM against KDR
Recorded inhibition at 1 µM values for a group of compounds are listed next.

O=C(Nc1ccnc(C(F)(F)F)c1)Nc1ccc(F)c(C(=O)c2ccc3ncc(N4CCOCC4)nc3c2)c1 [Compound C090] = 70 to 89%
O=C(Nc1cccc(F)c1)Nc1cc(F)c(F)c(C(=O)c2ccc3ncc(N4CCNCC4)nc3c2)c1 [Compound C098] = 70 to 89%
O=C(Nc1ccc(F)c(F)c1)Nc1ccc(F)c(C(=O)c2ccc3ncc(N4CCNCC4)nc3c2)c1 [Compound C102] = > 89%
O=C(Nc1cc(F)cc(C(=O)c2ccc3ncc(N4CCOCC4)nc3c2)c1)Nc1cccc(C(F)(F)F)c1 [Compound C038] = 70 to 89%
O=C(Nc1ccc(F)cc1)Nc1ccc(F)c(C(=O)c2ccc3nccnc3c2)c1 [Compound C070] = > 89%

INPUT: Any idea what its inhibition at 1 µM is? The compound is O=C(Nc1cc(F)cc(F)c1)Nc1cc(F)c(F)c(C(=O)c2ccc3ncc(N4CCOCC4)nc3c2)c1 [Compound C097]
OUTPUT: < 70%

INPUT: Any idea what its inhibition at 1 µM is? The compound is O=C(Nc1cc(F)c(F)c(C(=O)c2ccc3nccnc3c2)c1)Nc1ccc(Cl)c(C(F)(F)F)c1 [Compound C023]
OUTPUT: 70 to 89%

INPUT: Any idea what its inhibition at 1 µM is? The compound is O=C(Nc1cccc(C(=O)c2ccc3nccnc3c2)c1)c1cccc(F)c1 [Compound C105]
OUTPUT: < 70%

INPUT: Any idea what its inhibition at 1 µM is? The compound is O=C(Nc1ccc(F)c(F)c1)Nc1cc(F)c(F)c(C(=O)c2ccc3ncc(N4CCOCC4)nc3c2)c1 [Compound C096]
OUTPUT: < 70%

INPUT: Any idea what its inhibition at 1 µM is? The compound is O=C(Nc1cccc(C(F)(F)F)c1)Nc1cc(F)c(F)c(C(=O)c2ccc3ncc(N4CCOCC4)nc3c2)c1 [Compound C040]
OUTPUT: 70 to 89%

INPUT: Any idea what its inhibition at 1 µM is? The compound is O=C(Nc1cccc(C(=O)c2ccc3nccnc3c2)c1)Nc1cccc(C(F)(F)F)c1 [Compound C009]
OUTPUT: > 89%

INPUT: Any idea what its inhibition at 1 µM is? The compound is O=C(Nc1cccc(Cl)c1)Nc1cc(F)cc(C(=O)c2ccc3ncc(N4CCOCC4)nc3c2)c1 [Compound C047]
OUTPUT: < 70%

INPUT: Any idea what its inhibition at 1 µM is? The compound is O=C(Nc1cccc(C(=O)c2ccc3nccnc3c2)c1)Nc1ccc(Cl)c(C(F)(F)F)c1 [Compound C004]
OUTPUT: 70 to 89%

INPUT: Any idea what its inhibition at 1 µM is? The compound is O=C(Nc1cccc(C(=O)c2ccc3ncc(-c4cn[nH]c4)nc3c2)c1)c1ccc(Cl)c(C(F)(F)F)c1 [Compound C133]
OUTPUT: > 89%

INPUT: Any idea what its inhibition at 1 µM is? The compound is O=C(Nc1cccc(F)c1)Nc1cc(F)c(F)c(C(=O)c2ccc3nccnc3c2)c1 [Compound C024]
OUTPUT: 70 to 89%
